- Assay system: D(3) dopamine receptor (Homo sapiens) (UniProt P35462)
- Sequence (P35462 whole entry, looked up): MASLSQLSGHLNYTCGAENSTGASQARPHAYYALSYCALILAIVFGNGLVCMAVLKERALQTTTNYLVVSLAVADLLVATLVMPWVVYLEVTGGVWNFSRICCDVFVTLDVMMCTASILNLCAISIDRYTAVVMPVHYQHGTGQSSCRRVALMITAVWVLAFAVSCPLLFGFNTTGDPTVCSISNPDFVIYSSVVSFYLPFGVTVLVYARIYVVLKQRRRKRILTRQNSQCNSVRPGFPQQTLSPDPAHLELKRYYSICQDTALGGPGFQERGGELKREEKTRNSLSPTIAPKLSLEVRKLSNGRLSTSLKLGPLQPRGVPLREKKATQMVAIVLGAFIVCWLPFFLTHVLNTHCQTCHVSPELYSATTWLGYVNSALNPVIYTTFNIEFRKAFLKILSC
- Protocol notes: qHTS of D3 Dopamine Receptor Antagonist: qHTS; note: % is set by controls: 0 for no effect and ±100 for the full control effect
- Measurement context: D3R cells, DiscoveRx beta-arrestin luminescence, antagonist mode; hits give low values
Out of some 360,000 compounds screened, about 9,100 (2.5%) were called active. Inconclusive results (about 4%) are left out. The list comes from a sample in which actives are over-represented; it also holds close analogues and randomly drawn compounds.
Measured attribute: max response, negative = inhibition (%)
Note: unit % is implicit; provide only the numeric part.

Endpoint output: max response, negative = inhibition of CSc1ncnc2c1ncn2CCCNCC1CCCCC1 . Value? -105

Could you tell me which max response, negative = inhibition is on file for COc1ccc(/C=N/NC(=O)Nc2ccc3nsnc3c2)c(OC)c1 ? -16.9

GET /values?readout=max response, negative = inhibition&item= CCCCNC(=O)OC1CC2CC1[C@H]1CCCCN1C2=O (stereo partly specified) 2.26

Can you share its max response, negative = inhibition? I mean this compound: COc1ccc(/C=N/NC(=O)CNC(=O)c2ccc(S(=O)(=O)N3CCCC3)cc2)c(OC)c1 -0.269

Entry under review: O=S1(=O)CC(N2CCN(CCO)CC2)CN1C1CCCC1 (stereo unspecified) . Reported max response, negative = inhibition? 8.42

What measured max response, negative = inhibition goes with CSc1ncnc2c1ncn2CCCNCC(C)c1ccccc1 (stereo unspecified) ? 1.7

* * *

- Assay system: D(3) dopamine receptor (Homo sapiens)
- Protocol notes: qHTS of D3 Dopamine Receptor Antagonist: qHTS; note: % is set by controls: 0 for no effect and ±100 for the full control effect
- Measurement context: D3R cells, DiscoveRx beta-arrestin luminescence, antagonist mode
In all, about 360,000 compounds went through this assay and about 9,100 (2.5%) were called active. Roughly 4% stayed inconclusive and do not appear here. Cut-off read from the data, not from the text of the source: active = max response below about -50%; inconclusive = no clear call, values can overlap the other calls; inactive = above that. Many of the other results were omitted from the sample, so actives are more common in it than they were.
Permitted responses: active, inactive

Hey, what did the test say about CC(=O)N1CCN(CC(c2ccccc2)c2ccccc2)CC1 ? inactive

Hi team, can someone confirm the assay call for COc1ccccc1CN1CCN(Cc2cc(OC)c(OC)cc2OC)CC1 ? inactive

Recorded test call requested for CC(=O)Nc1cccc(-c2cc3nc(NCc4cccnc4)n(C)c(=O)c3s2)c1 inactive

Please state the recorded outcome for this molecule: COc1ccccc1CNC(=O)CCn1c(=O)sc2ccccc21 active

Call for entry CC(C)OCC(O)CN1CCN(C(c2ccccc2)c2ccccc2)CC1 (configuration not stated) : active

Hi, sorry to bother you, what did the test record for COc1cccc(-c2cnc(C(O)c3ccccc3OC)[nH]2)c1 (configuration not stated) ? inactive

Name the outcome recorded for Oc1ccccc1CN1CCN(C(c2ccccc2)c2ccccc2)CC1 in the assay. active

Write down the call the test reported for this molecule. Item: c1ccc(C(c2ccccc2)N2CCN(Cc3nnnn3C3CCCCC3)CC2)cc1 inactive

Each molecule tested received a call. Report the one for CC(=O)C1=CCC(c2ccccc2)N(S(=O)(=O)c2ccc(C)cc2)C1 (configuration not stated) . inactive

State the result this test recorded for COc1ccccc1CNC(=O)CCCN1C(=O)NC2(CCCC2)C1=O . inactive

Test call, this molecule: CC(C)Nc1nc(N(c2ccccc2)c2ccccc2)nc(-n2ccnc2)n1 inactive

Status in this test for Cn1nnnc1SCC(=O)N1CCN(C(c2ccccc2)c2ccccc2)CC1 ? inactive

Called result for Cc1cccc(N2CCN(C(=O)c3cc4c(=O)[nH]c5ccccc5c4n3C)CC2)c1C inactive

In this assay, the call recorded for O=C(N[C@H]1CC[C@H](CC(=O)N2CCCCC2)O[C@@H]1CO)c1cccc(F)c1 was what? inactive

Test call for this molecule, please: COc1ccc(/C=C2\SC(=S)N(CCC(=O)N3CCOCC3)C2=O)cc1OC inactive

Please share the test call associated with COc1ccccc1NC(=S)N1CCN(C(c2ccccc2)c2ccccc2)CC1 . inactive

Hello, I am checking results. What call was entered for COc1ccccc1CN1CCN(C(c2ccccc2)c2ccccc2)CC1 ? active

Assay result, entry CCOC(=O)C1CCN(C(=O)Nc2ccc(Cl)cc2)CC1 — outcome? inactive

What outcome does the record of this test show for O=C(C(c1ccccc1)c1ccccc1)N1CCN(CC(O)COc2ccccc2)CC1 (configuration not stated) ? inactive

// param item: COc1cccc(-c2cc3nc(NCc4ccccc4OC)n(C)c(=O)c3s2)c1 ; yields the recorded call inactive

Assay outcome for O=C(CSc1nnc(-c2ccco2)n1-c1ccccc1)NCCc1ccccc1 : what was it? active

Fill in: this test's call for COc1ccc(C(=O)NC(=O)CSc2nnc(-c3ccco3)n2-c2ccccc2)cc1 is ___ inactive

* * *

- Assay system: D(3) dopamine receptor (Homo sapiens) (UniProt P35462)
- Protocol notes: qHTS of D3 Dopamine Receptor Antagonist: qHTS; note: % is set by controls: 0 for no effect and ±100 for the full control effect
- Measurement context: D3R cells, DiscoveRx beta-arrestin luminescence, antagonist mode; hits give low values
The campaign covered roughly 360,000 compounds. About 9,100 (2.5%) were called active. Roughly 4% stayed inconclusive and do not appear here. Many of the other results were omitted from the sample, so actives are more common in it than they were.
Measured attribute: max response, negative = inhibition (%)
Write the number in % without appending the unit.

Request the reported max response, negative = inhibition associated with CCCCC(O)C1=C[N+](=O)CC=C1 (stereo unspecified) 7.65

# lookup: max response, negative = inhibition of Cn1c(-c2ccc(F)cc2)cnc1SCC(=O)NCc1ccco1 -51.9

I'd like to know its max response, negative = inhibition. The compound in question is O=C(c1ccccc1)N1CCN(c2cc(-c3ccccc3)nc3cc(-c4cccc(Cl)c4)nn23)CC1 14.3

Which measured max response, negative = inhibition value corresponds to O=C(N/N=C/c1ccc(O)cc1)/C(=C/c1ccc([N+](=O)[O-])cc1)NC(=O)c1ccccc1 ? -52.3

Using the record for COc1ccc(-c2csc(C(O)c3cccc(Cl)c3)n2)cn1 (stereo unspecified) , report its max response, negative = inhibition. -24

Entry Cc1ccc(S(=O)(=O)N2CC3C(=O)C[C@@H](c4ccccc4Cl)N(S(=O)(=O)c4ccc(C)cc4)C3CC2c2ccccc2)cc1 (stereo partly specified) has what max response, negative = inhibition? 9.92

What measured max response, negative = inhibition goes with O=C1Nc2ccccc2-n2nnnc2C1N1CCN(c2cccc(C(F)(F)F)n2)CC1 (stereo unspecified) ? 11.4

What value of measured max response, negative = inhibition is listed for O[C@H]1CN(Cc2cccs2)[C@@H](c2ccc(Cl)cc2)C[C@@H]1n1cc(C2CC2)nn1 ? 8.97

Would you kindly share the measured max response, negative = inhibition for CC1(C(=O)Nc2ccccc2Br)CCN1C(=O)CC1CC1 (stereo unspecified) ? 27.1

Need max response, negative = inhibition, item CC(C)Nc1ncnc2c1ncn2[C@H]1CN(Cc2ccncc2)C[C@@H](CO)O1 4.5

Which max response, negative = inhibition reading was recorded for the compound COC(=O)[C@H]1C[C@H](OC(=O)NCc2ccccc2)[C@@]2(O)CN(S(=O)(=O)c3ccc(C)cc3)CC2[C@H]1C(=O)OC (stereo partly specified) ? -0.452

Query (compound): C[C@@H]1CN([C@@H](C)CO)C(=O)c2cc(Br)cnc2O[C@H]1CN(C)Cc1ccc(-c2ccccc2)cc1 ; field requested: max response, negative = inhibition 24.5

Can you share its max response, negative = inhibition? I mean this compound: O=C(CSc1nnc2scc(-c3ccc(F)cc3)n12)NCc1ccco1 5.75

Consider the compound COc1ccc(CNC(=O)c2c(C)cc(=O)oc2C)cc1OC and give its measured max response, negative = inhibition. 2.8

max response, negative = inhibition lookup needed for Cn1c(-c2ccc(F)cc2)cnc1SCC(=O)NNC(=O)Cc1ccccc1 , thanks. -14.6

Looking for the measured max response, negative = inhibition of c1ccc2cc3[nH]c(CN4CCCCC4)nc3cc2c1 , can you help? -50.3

# max response, negative = inhibition lookup, item Cc1cc(=O)oc(C)c1C(=O)NCc1ccc(F)cc1 -14.8

If you can, please state the reported max response, negative = inhibition value of O=C(NCCOc1ccccc1)N1[C@H]2CC[C@@H]1C=C(c1ccc(F)cc1OCc1ccccc1)C2 . 56.5

Look at this compound and give its reported max response, negative = inhibition. CN(C)c1cccc(NC(=O)c2ccc(-c3ccc(F)c(F)c3)c3ccoc23)c1 -0.987

Requested read-out: max response, negative = inhibition. Entry: COc1cccc(S(=O)(=O)NCc2ccc(C(=O)NCc3ccccn3)cc2)c1 8.72

Quick check: max response, negative = inhibition of CC1(Cc2ccccc2C#N)C(=O)Nc2ccc(-c3ccc4[nH]ccc4c3)cc21 (stereo unspecified) ? -15.9

* * *

- Assay system: D(3) dopamine receptor (Homo sapiens)
- Protocol notes: qHTS of D3 Dopamine Receptor Antagonist: qHTS; note: % is set by controls: 0 for no effect and ±100 for the full control effect
- Measurement context: D3R cells, DiscoveRx beta-arrestin luminescence, antagonist mode; hits give low values
Out of some 360,000 compounds screened, about 9,100 (2.5%) were called active. Roughly 4% stayed inconclusive and do not appear here. The list comes from a sample in which actives are over-represented; it also holds close analogues and randomly drawn compounds.
Measured attribute: max response, negative = inhibition

// query max response, negative = inhibition value for entry c1ccc2c(c1)CSc1sccc1C2=C1CCNCC1 -65.7% (active)

Given the molecule Cc1ccc(C(=O)N2CCN(S(=O)(=O)N3CCOCC3)CC2)cc1 , what is its reported max response, negative = inhibition? -16.1% (inactive)

Which max response, negative = inhibition value belongs to CCc1nc2c(OCc3ccccc3)cccn2c1N(C)C(=O)c1ccco1 ? -0.512% (inactive)

Request the reported max response, negative = inhibition associated with Cc1ccc(NC(=O)CCN2CCc3ccccc3C2)cc1 -94.8% (active)

Given O=C(CN1CCc2cc3c(cc2C1)OCCCO3)Nc1ccccc1 , state its recorded max response, negative = inhibition. -19.3% (inactive)

Would you mind telling me what max response, negative = inhibition value was observed for Cc1ccc(NC(=O)CN2CCc3ccccc3C2)cc1 ? -84.2% (active)

# max response, negative = inhibition lookup, item CC1CCN(CCC(=O)Nc2ccccc2)CC1 -0.851% (inactive)

Would you mind telling me what max response, negative = inhibition value was observed for CC(C)N1C(=O)c2ccccc2NC(=O)C1C(=O)NCc1cccs1 (configuration not stated) ? -19.3% (inactive)

Look up max response, negative = inhibition for this molecule: COc1cccc(CC2(CO)CCCN(Cc3nc(-c4cccs4)oc3C)C2)c1 (configuration not stated) -116% (active)

# lookup: max response, negative = inhibition of CCc1ccc2c(c1)C1(NN=C(c3ccccc3)S1)C(=O)N2 (configuration not stated) -60.6% (active)

Suppose we examine the molecule COc1cc2c(cc1OC)CN(CC(=O)Nc1ccc(F)cc1)CC2 ; what max response, negative = inhibition value has been reported? -16.8% (inactive)

Can you look up the measured max response, negative = inhibition of Cc1cc(Br)cn2c(Cc3ccccc3C(F)(F)F)c(C3CCCCC3)nc12 for me? -18.2% (inactive)
